molecular target: A17 RT (Human immunodeficiency virus type 1 group M subtype B, UniProt P04585, K690N/Y768C); construct: A17 RT was employed in the assay; made in house; host or cells: bacteria; test: Reverse transcriptase assay, double (DBL) mutant; format: biochemical, HIV
Field: pIC50. Provide a value for each of the compounds that follow.
// field semantics: pIC50 = negative decimal log of concentration (mol/L)

stdin: Data request, read-out pIC50, for CN1C(=O)Nc2ccc(Cl)cc2C1(C#Cc1ccccn1)C1CC1 (stereo not shown)
stdout: 7.06

stdin: What do we get for CN1C(=O)Nc2ccc(Cl)cc2C1(C#CCOc1ccccn1)C1CC1 (stereo not shown) ?
stdout: 5.31

stdin: Param item: O=C1Nc2ccc(Cl)cc2C(C#Cc2cnccn2)(C2CC2)N1 (stereo not shown)
stdout: 5.05

stdin: And for O=C1Nc2ccc(Cl)cc2C(C#Cc2ncccn2)(C2CC2)N1 (stereo not shown) ?
stdout: 5.06

====

For each entry below, report its log10 of IC50 value.
target: A17 RT (Human immunodeficiency virus type 1 group M subtype B, UniProt P04585, K690N/Y768C); construct: A17 RT was employed in the assay; made in house; host or cells: bacteria; test: Reverse transcriptase assay, double (DBL) mutant; format: biochemical, HIV
The common logarithm of IC50 in nM is what is listed.

stdin: Requested field: log10 of IC50. Item: CN(C)CC#CC1(C2CC2)c2cc(Cl)ccc2NC(=O)N1C (centres unmarked)
stdout: 2.44

stdin: Now this one: CN1C(=O)Nc2ccc(Cl)cc2C1(C#CCOCC(F)(F)F)C1CC1 (centres unmarked)
stdout: 3.41

stdin: What do you get for CN1C(=O)Nc2ccc(Cl)cc2C1(C#CCN=[N+]=[N-])C1CC1 (centres unmarked) ?
stdout: 3.24

stdin: Now this one: O=C1Nc2ccc(Cl)cc2[C@@](C#Cc2ccccn2)(C2CC2)N1
stdout: 2.60

stdin: Record: CN1C(=O)Nc2ccc(Cl)cc2C1(C#CCn1ccnc1)C1CC1 (centres unmarked)
stdout: 2.98

stdin: Entry CN1C(=O)Nc2ccc(Cl)cc2C1(C#CCCCl)C1CC1 (centres unmarked) please
stdout: 2.40

stdin: What about O=C1Nc2ccc(Cl)cc2C(C#CCCF)(C2CC2)N1 (centres unmarked) ?
stdout: 3.54

stdin: What do you get for CN1C(=O)Nc2ccc(Cl)cc2C1(C#CCF)C1CC1 (centres unmarked) ?
stdout: 3.46

stdin: Next compound: C=CC#CC1(C2CC2)c2cc(Cl)ccc2NC(=O)N1C (centres unmarked)
stdout: 2.39

stdin: Do the same for CN1C(=O)Nc2ccc(Cl)cc2C1(C#CCOc1ccncc1)C1CC1 (centres unmarked) please
stdout: 3.59

stdin: // query: O=C1Nc2ccc(Cl)cc2C(C#Cc2cncnc2)(C2CC2)N1 (centres unmarked)
stdout: 3.48

stdin: Param item: COCC#CC1(C2CC2)NC(=O)Nc2ccc(Cl)cc21 (centres unmarked)
stdout: 3.86

stdin: Same for CN1C(=O)Nc2ccc(Cl)cc2C1(C#CCN1CCOCC1)C1CC1 (centres unmarked)
stdout: 4.34

stdin: Query CN1C(=O)Nc2ccc(Cl)cc2C1(C#CCCF)C1CC1 (centres unmarked) next
stdout: 2.36

stdin: Same thing, different compound: O=C1Nc2ccc(Cl)cc2C(C#Cc2ccncc2)(C2CC2)N1 (centres unmarked)
stdout: 3.48

stdin: Another compound to check: COCC#CC1(C2CC2)c2cc(Cl)ccc2NC(=O)N1C (centres unmarked)
stdout: 2.85

stdin: Another: O=C1Nc2ccc(Cl)cc2C(C#Cc2ccccc2)(C2CC2)N1 (centres unmarked)
stdout: 2.13

stdin: Also need O=C1Nc2ccc(Cl)cc2C(C#Cc2ccccn2)(C2CC2)N1 (racemic) , thanks.
stdout: 2.80

stdin: Same read-out for O=C1Nc2ccc(Cl)cc2C(C#Cc2cccnc2)(C2CC2)N1 (centres unmarked) ?
stdout: 2.49

stdin: Try this compound next: O=C1Nc2ccc(Cl)cc2C(C#Cc2ccccc2[N+](=O)[O-])(C2CC2)N1 (centres unmarked)
stdout: 2.59

====

Molecular target: recombinant HIV reverse transcriptase (HIV RTR) (Human immunodeficiency virus type 1 group M subtype B, UniProt P04585)
Construct: recombinant HIV reverse transcriptase (HIV RTR); made in house; host or cells: bacteria (E. coli is named only for the purified heterodimer control)
Assay: Reverse transcriptase assay (incorporation of tritiated dGMP into acid-precipitable cDNA)
Type: biochemical
Text: The assay measures the incorporation of tritiated deoxyguanosine monophosphate by recombinant HIV reverse transcriptase (HIV RTR) (or other RT) into acid-precipitable cDNA at the Km values of dGTP and poly r(C)·oligo d(G)₁₂₋₁₈. […]
Entries whose IC50 is below 10 nM take true (1); entries at or above 10 nM take false (0).

stdin: Would you kindly verify if IC50 of CN(C)CC#CC1(C2CC2)c2cc(Cl)ccc2NC(=O)N1C (stereo not drawn) is strictly less than 10 nM?
stdout: false (0)

stdin: Record: CN1C(=O)Nc2ccc(Cl)cc2C1(C#CCOCC(F)(F)F)C1CC1 (stereo not drawn)
stdout: false (0)

stdin: Field entry: CN1C(=O)Nc2ccc(Cl)cc2C1(C#CCCCl)C1CC1 (stereo not drawn)
stdout: true (1)

stdin: Lookup O=C1Nc2ccc(Cl)cc2C(C#Cc2ccccc2)(C2CC2)N1 (stereo not drawn)
stdout: true (1)

stdin: Same question, O=C1Nc2ccc(Cl)cc2C(C#Cc2cccnc2)(C2CC2)N1 (stereo not drawn) this time
stdout: false (0)

stdin: Ok, now COCC#CC1(C2CC2)c2cc(Cl)ccc2NC(=O)N1C (stereo not drawn)
stdout: false (0)

stdin: Moving on to O=C1Nc2ccc(Cl)cc2[C@@](C#Cc2ccccn2)(C2CC2)N1
stdout: true (1)

stdin: Could you do the same for CN1C(=O)Nc2ccc(Cl)cc2C1(C#CCn1ccnc1)C1CC1 (stereo not drawn) , please?
stdout: false (0)

stdin: # iterate: COCC#CC1(C2CC2)NC(=O)Nc2ccc(Cl)cc21 (stereo not drawn)
stdout: false (0)

====

molecular target: recombinant HIV reverse transcriptase (HIV RTR) (Human immunodeficiency virus type 1 group M subtype B, UniProt P04585); construct: recombinant HIV reverse transcriptase (HIV RTR); made in house; host or cells: bacteria (E. coli is named only for the purified heterodimer control); test: Reverse transcriptase assay (incorporation of tritiated dGMP into acid-precipitable cDNA); type: biochemical
Give measured IC50 for each item. Keep answers brief.
Express the result in µM but write the number alone.

stdin: Which IC50 is reported for this molecule? O=C1Nc2ccc(Cl)cc2C(C#CCCF)(C2CC2)N1 (stereo not shown)
stdout: 0.031

stdin: Note, next up: CN1C(=O)Nc2ccc(Cl)cc2C1(C#CCOc1ccncc1)C1CC1 (stereo not shown)
stdout: 0.165

stdin: Another molecule: O=C1Nc2ccc(Cl)cc2C(C#Cc2ccncc2)(C2CC2)N1 (stereo not shown)
stdout: 0.47

stdin: Now this one: CN1C(=O)Nc2ccc(Cl)cc2C1(C#CCN1CCOCC1)C1CC1 (stereo not shown)
stdout: 1

====

biological target: recombinant HIV reverse transcriptase (HIV RTR) (Human immunodeficiency virus type 1 group M subtype B); construct: recombinant HIV reverse transcriptase (HIV RTR); made in house; host or cells: bacteria (E. coli is named only for the purified heterodimer control); experiment: Reverse transcriptase assay (incorporation of tritiated dGMP into acid-precipitable cDNA); type: biochemical
measurementLabel: IC50 (µM)
Field format: number, assumed µM, no unit text.

stdin: Look up IC50 for this compound: CN1C(=O)Nc2ccc(Cl)cc2C1(C#CCOc1ccccn1)C1CC1 (centres unmarked)
stdout: 0.125

stdin: # iterate: O=C1Nc2ccc(Cl)cc2C(C#Cc2cncnc2)(C2CC2)N1 (centres unmarked)
stdout: 1.75

stdin: Now try CN1C(=O)Nc2ccc(Cl)cc2C1(C#CCF)C1CC1 (centres unmarked) .
stdout: 0.024

stdin: Queued: C=CC#CC1(C2CC2)c2cc(Cl)ccc2NC(=O)N1C (centres unmarked)
stdout: 0.0043

stdin: Same again, this time with CN1C(=O)Nc2ccc(Cl)cc2C1(C#Cc1ccccn1)C1CC1 (centres unmarked)
stdout: 0.021

====

target: recombinant HIV reverse transcriptase (HIV RTR) (Human immunodeficiency virus type 1 group M subtype B, UniProt P04585); construct: recombinant HIV reverse transcriptase (HIV RTR); made in house; host or cells: bacteria (E. coli is named only for the purified heterodimer control); assay: Reverse transcriptase assay (incorporation of tritiated dGMP into acid-precipitable cDNA); format: biochemical
Sorting guide: entries reporting IC50 beneath 20 nM go in the true (1) pile, the rest go in the false (0) pile.

stdin: Just wondering, is IC50 of O=C1Nc2ccc(Cl)cc2C(C#Cc2ccccc2[N+](=O)[O-])(C2CC2)N1 (centres unmarked) [Compound 25] below 20 nM?
stdout: true (1)

stdin: Again, but for O=C1Nc2ccc(Cl)cc2C(C#Cc2ccccn2)(C2CC2)N1 (racemic) [Compound 11]
stdout: true (1)

stdin: Follow-up item: CN1C(=O)Nc2ccc(Cl)cc2C1(C#CCO)C1CC1 (centres unmarked) [Compound 22]
stdout: false (0)

stdin: Now try CN1C(=O)Nc2ccc(Cl)cc2C1(C#CCCF)C1CC1 (centres unmarked) [Compound 4] .
stdout: true (1)
